As shown below, each of these compounds has a reported RF solvent 1 value.
Assay: Lipid/water partition parameter RM from thin-film chromatography on silica gel
Assay type: physicochemical
Details: Solvent 1: 100% ethyl acetate; silica gel

COMPOUND	RF solvent 1
CCCCCCCCCCCCCCCC(=O)NCCOC1CCCCO1 (stereo not drawn)	0.43
CCCCCCCCCCCCCCCC(=O)NCCOC1CCCO1 (stereo not drawn)	0.41
O=C(CCCCCCCC(=O)NCCOC1CCCO1)NCCOC1CCCO1 (stereo not drawn)	0.52

====

Assay: Lipid/water partition parameter RM from thin-film chromatography on silica gel
Format: physicochemical
Conditions: Solvent 1: 100% ethyl acetate; RM of derivative minus RM of corresponding alkanolamide
Procedure: The chemical and physical characteristics of the derivatives according to the invention were evaluated by quantitative measurement of the lipid/water partition parameter. […]
As shown below, each of these molecules has a reported ΔRM solvent 1 value.
MEASURED_PROPERTY: ΔRM solvent 1

MOLECULE	READING
CCCCCCCCCCCCCCCC(=O)NCCOC(=O)NCc1ccccc1 [Example 5]	−0.736
O=C(CCCCCCCC(=O)NCCOC1CCCO1)NCCOC1CCCO1 (stereo not drawn) [Example 10]	−0.424
CCCCCCCCCCCCCCCC(=O)NCCOC(=O)OCC [Example 1]	−1.001
CCCCCCCCCCCCCCCC(=O)NCCOC1CCCO1 (stereo not drawn) [Example 9]	−0.630
CCCCCCCC/C=C\CCCCCCCC(=O)NCCOC(=O)OCC [Example 13]	−0.984
CCCCCCCCCCCCCCCC(=O)NCCOC1CCCCO1 (stereo not drawn) [Example 11]	0.666

====

Test: Lipid/water partition parameter RM from thin-film chromatography on silica gel
Assay type: physicochemical
Conditions: Solvent 2: heptane:isopropanol:ethyl acetate:H2O 40:20:50:2; RM=log (1/Rf−1)
As shown below, each of these compounds has a reported RM solvent 2 value.

COMPOUND	RM solvent 2
CCCCCCCC/C=C\CCCCCCCC(=O)NCCOC(=O)OCC	−0.347
O=C(CCCCCCCC(=O)NCCOC1CCCCO1)NCCOC1CCCCO1 (stereo not drawn)	−0.017
CCCCCCCCCCCCCCCC(=O)NCCOC(=O)NCc1ccccc1	−0.269

====

Assay: Lipid/water partition parameter RM from thin-film chromatography on silica gel
Assay type: physicochemical
Settings: Solvent 1: 100% ethyl acetate; RM=log (1/Rf−1)
MEASURED_PROPERTY: RM solvent 1

MOLECULE	MEASURED_PROPERTY	READING
CCCCCCCCCCCCCCCC(=O)NCCCOC(=O)OCC [Example 3]	RM solvent 1	−0.194
CCCCCCCCCCCCCCCC(=O)NCCOC(=O)NCc1ccccc1 [Example 5]	RM solvent 1	0.052
O=C(CCCCCCCC(=O)NCCOC1CCCCO1)NCCOC1CCCCO1 (stereo not shown) [Example 12]	RM solvent 1	−0.105
CCCCCCCCCCCCCCCC(=O)NCCOC1CCCCO1 (stereo not shown) [Example 11]	RM solvent 1	0.122
